Measured growth values are reported for all entries that follow.
- Test system: E. coli TESEC Mtb Alr
- ASSAY NAME: growth (OD600 after 10 h); higher = more growth (less inhibition)
- CONDITIONS: arabinose 1000000 nM; compound 0.1 mM; raw OD600 reference: median of DMSO wells 0.193, cell-free background 0.041
EXPERIMENTAL READOUT: growth

COMPOUND: CC1CS(=O)(=O)CCN1/N=C/c1ccc([N+](=O)[O-])o1 (stereo not drawn) [Nifurtimox]
ASSAY RESULT: 0.0414
//
COMPOUND: CC[C@H]1OC(=O)C[C@@H](O)[C@H](C)[C@@H](O[C@@H]2O[C@H](C)[C@@H](O[C@H]3C[C@@](C)(O)[C@@H](O)[C@H](C)O3)[C@H](N(C)C)[C@H]2O)[C@@H](CC=O)C[C@@H](C)C(=O)/C=C/C(C)=C/[C@@H]1CO[C@@H]1O[C@H](C)[C@@H](O)[C@@H](OC)[C@H]1OC [Tylosin]
ASSAY RESULT: 0.0395
//
COMPOUND: CCCCC1(COC(=O)CCC(=O)O)C(=O)N(c2ccccc2)N(c2ccccc2)C1=O [Suxibuzone]
ASSAY RESULT: 0.188

----------
- Test system: E. coli TESEC Mtb Asd
- ASSAY NAME: growth (OD600 after 10 h); higher = more growth (less inhibition)
- CONDITIONS: arabinose induction (level): Low; compound 0.1 mM; raw OD600 reference: median of DMSO wells 0.417, cell-free background 0.041
Counter-ions that a name gives are not always drawn.

COMPOUND: CN(C)CCC=C1c2ccccc2CCc2ccccc21 [Amitryptiline hydrochloride]
TARGET DESC: E. coli TESEC Mtb Asd
growth: 0.273
//
COMPOUND: CN1CCN(C(c2ccccc2)c2ccccc2)CC1 [Cyclizine hydrochloride]
TARGET DESC: E. coli TESEC Mtb Asd
growth: 0.31
//
COMPOUND: COc1ccc(-c2ccc(=N)n(CCCC(=O)O)n2)cc1 [Gabazine bromide]
TARGET DESC: E. coli TESEC Mtb Asd
growth: 0.342
//
COMPOUND: CCCSc1ccc2[nH]c(NC(=O)OC)nc2c1 [Albendazole]
TARGET DESC: E. coli TESEC Mtb Asd
growth: 0.409
//
COMPOUND: CCCc1nn(C)c2c(=O)[nH]c(-c3cc(S(=O)(=O)N4CCN(C)CC4)ccc3OCC)nc12 [Sildenafil]
TARGET DESC: E. coli TESEC Mtb Asd
growth: 0.399
//
COMPOUND: CN(C(=O)CN(CCO)CC(=O)N(C)C(C)(C)Cc1ccccc1)C(C)(C)Cc1ccccc1 [Oxethazaine]
TARGET DESC: E. coli TESEC Mtb Asd
growth: 0.25
//
COMPOUND: CCN[C@H]1C[C@H](C)S(=O)(=O)c2sc(S(N)(=O)=O)cc21 [Dorzolamide hydrochloride]
TARGET DESC: E. coli TESEC Mtb Asd
growth: 0.355
//
COMPOUND: Cc1ccccc1C(OCCN(C)C)c1ccccc1 (stereo not drawn) [Orphenadrine hydrochloride]
TARGET DESC: E. coli TESEC Mtb Asd
growth: 0.383
//
COMPOUND: Nc1c2c(nc3ccccc13)CCCC2O (racemic) [Hydroxytacrine maleate (R,S)]
TARGET DESC: E. coli TESEC Mtb Asd
growth: 0.257
//
COMPOUND: N#Cc1cc(NC(=O)C(=O)O)c(Cl)c(NC(=O)C(=O)O)c1 [Lodoxamide]
TARGET DESC: E. coli TESEC Mtb Asd
growth: 0.366
//
COMPOUND: O=C1[C@H]2CCCC[C@H]2C(=O)N1CCCCN1CCN(c2nsc3ccccc23)CC1 [Perospirone]
TARGET DESC: E. coli TESEC Mtb Asd
growth: 0.369
//
COMPOUND: CN1CCC(=C2c3ccccc3CCc3sccc32)CC1 [Pizotifen malate]
TARGET DESC: E. coli TESEC Mtb Asd
growth: 0.181
//
COMPOUND: CC(C)NCC(O)c1ccc(O)c(O)c1 (single isomer, unassigned; (+)) [(+)-Isoproterenol (+)-bitartrate salt]
TARGET DESC: E. coli TESEC Mtb Asd
growth: 0.468
//
COMPOUND: O=C1c2c(O)cccc2Cc2cccc(O)c21 [Anthralin]
TARGET DESC: E. coli TESEC Mtb Asd
growth: 0.306
//
COMPOUND: c1coc(CNc2ncnc3nc[nH]c23)c1 [6-Furfurylaminopurine]
TARGET DESC: E. coli TESEC Mtb Asd
growth: 0.43
//
COMPOUND: CC(COc1ccccc1)NC(C)C(O)c1ccc(O)cc1 (stereo not drawn) [Isoxsuprine hydrochloride]
TARGET DESC: E. coli TESEC Mtb Asd
growth: 0.402
//
COMPOUND: CN(c1nccc(=O)[nH]1)C1CCN(c2nc3ccccc3n2Cc2ccc(F)cc2)CC1 [Mizolastine]
TARGET DESC: E. coli TESEC Mtb Asd
growth: 0.293
//
COMPOUND: O=C(CCCN1CCN(c2ccccn2)CC1)c1ccc(F)cc1 [Azaperone]
TARGET DESC: E. coli TESEC Mtb Asd
growth: 0.326

----------
- System: E. coli TESEC Alr+ wild-type control
- ASSAY NAME: growth (OD600 after 10 h); higher = more growth (less inhibition)
- CONDITIONS: compound 0.1 mM; raw OD600 reference: median of DMSO wells 0.241, cell-free background 0.041
Counter-ions that a name gives are not always drawn.
# label = rule met if growth >= 0.2 else rule not met

COMPOUND: CCN(CC)CCCC(C)Nc1ccnc2cc(Cl)ccc12 (stereo not given) [Chloroquine diphosphate]
TARGET DESC: E. coli TESEC Alr+ wild-type control
CATEGORY: rule met
//
COMPOUND: COCC1=C(C(=O)OC(C)OC(=O)OC(C)C)N2C(=O)[C@@H](NC(=O)/C(=N\OC)c3csc(N)n3)[C@H]2SC1 (stereo not given in full)
TARGET DESC: E. coli TESEC Alr+ wild-type control
CATEGORY: rule met
//
COMPOUND: CC(C)NCC(O)c1ccc(O)c(O)c1 (single isomer, unassigned; (+)) [(+)-Isoproterenol (+)-bitartrate salt]
TARGET DESC: E. coli TESEC Alr+ wild-type control
CATEGORY: rule met
//
COMPOUND: CC(=O)Nc1ccc(CC(=O)O)cc1
TARGET DESC: E. coli TESEC Alr+ wild-type control
CATEGORY: rule met
//
COMPOUND: CC(=O)Oc1cc(C(C)C)c(OCCN(C)C)cc1C [Moxisylyte hydrochoride]
TARGET DESC: E. coli TESEC Alr+ wild-type control
CATEGORY: rule met
//
COMPOUND: CC1(C)O[C@@H]2C[C@H]3[C@@H]4CCC5=CC(=O)CC[C@]5(C)[C@@]4(F)[C@@H](O)C[C@]3(C)[C@]2(C(=O)CCl)O1 [Halcinonide]
TARGET DESC: E. coli TESEC Alr+ wild-type control
CATEGORY: rule met
//
COMPOUND: O=C1NCN(c2ccccc2)C12CCN(CCCC(c1ccc(F)cc1)c1ccc(F)cc1)CC2
TARGET DESC: E. coli TESEC Alr+ wild-type control
CATEGORY: rule not met
//
COMPOUND: CC[C@H]1OC(=O)[C@H](C)[C@@H](O[C@H]2C[C@@](C)(OC)[C@@H](O)[C@H](C)O2)[C@H](C)[C@@H](O[C@@H]2O[C@H](C)C[C@H](N(C)C)[C@H]2O)[C@](C)(O)C[C@@H](C)CN(C)[C@H](C)[C@@H](O)[C@]1(C)O
TARGET DESC: E. coli TESEC Alr+ wild-type control
CATEGORY: rule not met
//
COMPOUND: CCCNC(C)C(=O)Nc1ccccc1C (stereo not given) [Prilocaine hydrochloride]
TARGET DESC: E. coli TESEC Alr+ wild-type control
CATEGORY: rule met
//
COMPOUND: CC[C@H](c1ccc(O)cc1)[C@@H](CC)c1ccc(O)cc1
TARGET DESC: E. coli TESEC Alr+ wild-type control
CATEGORY: rule not met
//
COMPOUND: CN1CCN(CCCN2c3ccccc3Sc3ccc(C(F)(F)F)cc32)CC1 [Trifluoperazine dihydrochloride]
TARGET DESC: E. coli TESEC Alr+ wild-type control
CATEGORY: rule not met
//
COMPOUND: C[C@@H]1NC(=O)NC1=O
TARGET DESC: E. coli TESEC Alr+ wild-type control
CATEGORY: rule met
//
COMPOUND: NC[C@H]1O[C@H](O[C@H]2[C@H](O[C@@H]3O[C@H](CO)[C@@H](O)[C@H]3O)[C@@H](O)[C@H](N)C[C@@H]2N)[C@H](N)[C@@H](O)[C@@H]1O [Ribostamycin sulfate salt]
TARGET DESC: E. coli TESEC Alr+ wild-type control
CATEGORY: rule met
//
COMPOUND: CCN(CCO)CCCC(C)Nc1ccnc2cc(Cl)ccc12 (stereo not given) [Hydroxychloroquine sulfate]
TARGET DESC: E. coli TESEC Alr+ wild-type control
CATEGORY: rule met

Hello, the source for this data is the supplement of paper PMC9262897, in case you need it.
